# assay_protocol: Aqueous solubility measurement by HPLC
# Type: physicochemical
# measurement_context: PBS (50 mM, aqueous buffer, thermodynamic from solid); PBS (pH 7.4), 25 °C, HPLC; read-out: Solubility
# Experimental: Berberine, 3c and 6k (5 mg) were dissolved in 1 ml PBS (50 mM, pH 7.4) at 25 °C. The suspension was sonicated for 30 min and then centrifuged at 15000 g for 5 min. The supernatant was filtered through a PTFE filter (0.2 μm) slowly. Then 10 μL filtered solution was injected into the HPLC system (Shimadzu DGU-20A3R) on a Shimadzu-GL WondaSil C18-WR column and quantified using the standard curves made by the corresponding known concentrations of berberine, 3c and 6k. […]
assay_metric: solubility at 30 min

>>> endpoint_value("COc1ccc2cc3[n+](cc2c1OC)CCc1cc2c(cc1-3)OCO2 [Berberine]")
"1360 µg/mL"
